Kindly state TGI for each of the entries shown.
# System: CAKI-1 renal
# assay.procedure: NCI tumour cell line growth inhibition, 48 h

Which TGI is reported for this compound? COc1ccc(-c2c(C#N)c(S)n(NS(=O)(=O)c3ccccc3)c(=O)c2C#N)cc1
> 100 µM

Which TGI is reported for this compound? C[C@]12CC[C@@H]3c4ccc(O)cc4CC[C@H]3[C@@H]1Cc1cnc(N)nc12
49.8 µM

Which TGI is reported for this compound? N#Cc1c(-c2ccccc2)c(CN2CCCCC2)c(=O)n2c1[nH]c1ccccc12
> 100 µM

Which TGI is reported for this compound? ClCCCCCc1c2nc(c(CCCCCCl)c3ccc([nH]3)c(CCCCCCl)c3ccc([nH]3)c(CCCCCCl)c3nc1C=C3)C=C2
> 100 µM

Which TGI is reported for this compound? COC(=O)CC1c2ccccc2N2C(=O)Cc3c([nH]c4ccccc34)C12 (stereo not drawn)
> 100 µM

Which TGI is reported for this compound? COc1cc(C2c3cc4c(cc3[C@@H](NCCN3CCOCC3)C3COC(=O)[C@H]23)OCO4)cc(OC)c1O (stereo partly drawn)
> 75 µM

Which TGI is reported for this compound? COc1cc(/C=C/C(=O)c2ccc(F)cc2)ccc1OCCCN1CCN(CC(=O)Nc2ccc(Cl)cc2C(=O)c2ccccc2Cl)CC1
32.5 µM

Which TGI is reported for this compound? Cc1nn(-c2ccc([N+](=O)[O-])cc2)c2ncnc(N/N=C/c3ccccc3O)c12
1.82 µM

Which TGI is reported for this compound? CCOC(=O)c1nnc2c(C#N)c(-c3ccccc3)c(C)n2c1N
> 100 µM

Which TGI is reported for this compound? Nc1ccccc1C#C/C=C\C#Cc1cccc(O)c1
36.2 µM

Which TGI is reported for this compound? O=C(c1ccccc1)N1C(=S)N(c2ccccn2)C(=Nc2ccccc2)C1=Nc1ccccc1
43.8 µM

Which TGI is reported for this compound? COc1ccc2nc3cc(Cl)ccc3c(SCC(=O)Nc3ccccc3-c3ccccc3NC(=O)CSc3c4ccc(Cl)cc4nc4ccc(OC)cc34)c2c1
> 100 µM

Which TGI is reported for this compound? CCO/C=N/C1=C(C#N)SC2=N/C(=C\c3ccccc3)C(=O)N21
> 100 µM

Which TGI is reported for this compound? O=c1cc(-c2ccccc2)[nH]c2nccn12
> 10 µM

Which TGI is reported for this compound? O=C(CC(Cl)=C(Cl)Cl)c1ccccc1
53.6 µM

Which TGI is reported for this compound? CN(C)c1ccc(C=C2C(=O)NC(=S)NC2=O)c2ccccc12
> 100 µM

Which TGI is reported for this compound? CN(C)C(=O)c1ccc([N+](=O)[O-])cc1
> 100 µM

Which TGI is reported for this compound? CCOc1cc2c(c(OCC)c1O)CC[C@@H]1[C@@H]2CC[C@]2(C)[C@@H](O)CC[C@@H]12
32.1 µM

Which TGI is reported for this compound? CC1=C(C(=O)N[C@@H](CC(C)C)C(=O)O)N2C(=O)[C@@H](NC(=O)C(N)c3ccccc3)[C@H]2SC1 (stereo partly drawn)
> 100 µM

Which TGI is reported for this compound? COc1ccc(CC2(Cc3ccc(OC)cc3)CCOC2=O)cc1
> 100 µM

Which TGI is reported for this compound? COc1cccc(C2c3cc4c(cc3OC(Nc3ccccc3)C2C)OCO4)c1OC (stereo not drawn)
> 100 µM

Which TGI is reported for this compound? Nc1c(C(=O)c2cccc(-c3cccnc3)c2)cnn1-c1ccc(F)cc1F
> 25 µM

Which TGI is reported for this compound? O=c1oc2cc(O)ccc2c(O)c1Cc1c(O)c2ccc(O)cc2oc1=O
> 100 µM

Which TGI is reported for this compound? N#CSCc1ccc(Cl)c(CSC#N)c1
21.7 µM

Which TGI is reported for this compound? CN(Cc1cnc2c(N)nc(N)nc2n1)c1ccc(Cl)cc1
> 100 µM

Which TGI is reported for this compound? O1[As]2O[As]3O[As]1O[As](O2)O3
3.13 µM

Which TGI is reported for this compound? C=C1CC[C@@H]2[C@](C)(COC(C)=O)[C@H](OC(C)=O)CC[C@@]2(C)[C@@H]1CC(Nc1ccc(S(=O)(=O)Nc2ccc(Cl)nn2)cc1)C1=CCOC1=O (stereo partly drawn)
10 µM

Which TGI is reported for this compound? COc1ccc2nc3cccc([N+](=O)[O-])c3c(NCCCO)c2c1
0.0248 µM

Which TGI is reported for this compound? COc1cccc(NC(=O)CC(=O)N2N=C(N3c4ccccc4Sc4ccccc43)CC2c2ccccc2)c1 (stereo not drawn)
> 100 µM

Which TGI is reported for this compound? COc1cc(OC)c2[nH]c3c(O)c(-c4c(C)cc5c([nH]c6c(OC)cc(OC)cc65)c4O)c(C)cc3c2c1
22.1 µM

Which TGI is reported for this compound? COC(=O)C12OC3CO[Si](C(C)C)(C(C)C)O[Si](C(C)C)(C(C)C)OC3C1Oc1nc(=O)ccn12 (stereo not drawn)
31.7 µM

Which TGI is reported for this compound? COC1=C(C)C(=O)c2c(cc3c(c2O)C(C)(CCC=C(C)C)C(C)O3)C1=O (stereo not drawn)
> 100 µM

Which TGI is reported for this compound? CCOC(=O)C(Cl)(NC(=O)OCc1ccccc1)C(F)(F)F (stereo not drawn)
> 100 µM
